The reported measurements were obtained from patent US11629139B2.

- Tested on: vesicular stomatitis virus particles (VSV) pseudotyped with EboV Zaire GP
- experiment_summary: microbe, parasite or virus in culture
- Type: cell-based
- run_conditions: Vesicular stomatitis virus
pIC50: −log10 of the molar value.
Parameter pIC50: see the listing below.

As a guide, the following entries are already answered.
# compound, target_or_system, pIC50
records = [
    ("NC(=O)Nc1ccc(Cl)cc1CN1CCN(C(=O)CNC(=O)CC2CCC(F)(F)CC2)CC1 [Compound 1361]", "vesicular stomatitis virus particles (VSV) pseudotyped with EboV Zaire GP", "< 5.70"),
    ("CS(=O)(=O)c1ccc(Oc2cc(F)cc(CN3CCN(C(=O)CNC(=O)CC4CCC(F)(F)CC4)CC3)c2)cc1 [Compound 1460]", "vesicular stomatitis virus particles (VSV) pseudotyped with EboV Zaire GP", "< 6.00"),
    ("O=C(CC1CCC(F)(F)CC1)NCC(=O)N1CCN(Cc2cc(Cl)ccc2NC(=O)C2CC2)CC1 [Compound 1378]", "vesicular stomatitis virus particles (VSV) pseudotyped with EboV Zaire GP", "< 5.70"),
]

Per the records, this compound ( COC(=O)COc1ccc(Cl)cc1CN1CCN(C(=O)CNC(=O)CC23CC4CC(CC(C4)C2)C3)CC1 [Compound 1302] ) has pIC50 equal to < 5.70

Memo: O=C(NCC(=O)N1CCN(Cc2cc(Cl)cc3cccnc23)CC1)C1CC12CCC(F)(F)CC2 (centres unmarked) [Compound 1405] , reported pIC50: 6.59 to 7.15
